Target: HPK1 (Homo sapiens, UniProt Q92918)
Construct: A HiBiT tag was introduced by CRISPR on the N terminus of HPK1 in Jurkat cells; host or cells: Jurkat (ATCC TIB-152), monoclonal CRISPR HiBiT knock-in line
Sequence (Q92918 whole entry): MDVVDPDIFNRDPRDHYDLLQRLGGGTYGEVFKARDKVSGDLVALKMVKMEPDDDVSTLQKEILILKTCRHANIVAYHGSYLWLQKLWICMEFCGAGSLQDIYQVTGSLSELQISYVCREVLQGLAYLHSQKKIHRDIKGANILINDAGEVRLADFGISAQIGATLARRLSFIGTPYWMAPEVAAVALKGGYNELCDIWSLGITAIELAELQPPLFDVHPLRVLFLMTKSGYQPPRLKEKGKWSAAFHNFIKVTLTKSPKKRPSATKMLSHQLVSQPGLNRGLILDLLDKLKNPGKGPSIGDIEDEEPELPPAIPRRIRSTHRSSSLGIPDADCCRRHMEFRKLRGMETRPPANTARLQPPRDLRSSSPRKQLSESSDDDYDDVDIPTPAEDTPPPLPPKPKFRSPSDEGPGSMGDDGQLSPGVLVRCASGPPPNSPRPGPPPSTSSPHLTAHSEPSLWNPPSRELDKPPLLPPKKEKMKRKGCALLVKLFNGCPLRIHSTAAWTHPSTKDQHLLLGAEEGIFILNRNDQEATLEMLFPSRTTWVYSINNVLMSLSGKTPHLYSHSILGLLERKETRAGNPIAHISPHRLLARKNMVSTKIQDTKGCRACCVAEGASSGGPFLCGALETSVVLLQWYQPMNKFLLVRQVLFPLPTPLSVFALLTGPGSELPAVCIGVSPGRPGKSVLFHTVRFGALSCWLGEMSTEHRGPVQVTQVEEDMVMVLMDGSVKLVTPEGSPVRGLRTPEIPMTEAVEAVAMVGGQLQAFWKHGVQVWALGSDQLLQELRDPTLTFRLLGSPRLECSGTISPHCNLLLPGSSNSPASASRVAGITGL
Test: HPK1 Cellular HiBiT Degradation Assay
Type: cell-based
Details: HiBiT-tagged HPK1 Jurkat cells, 24 hours, 10 uM to 0.1 nM; Dmax = 100 minus lowest % HPK1 remaining vs DMSO vehicle
Catalogue of Dmax readings, one per entry.

Check out these entries, answers already filled in.
Cc1cc(F)c(Nc2nc(-c3ccc4c(c3)N([C@H]3C[C@@H](N5CCCCC5)C3)C(=O)C43CCN(C(=O)[C@H]4CC[C@@H](C(=O)N5CCC(Nc6cccc7c6C(=O)N(C6CCC(=O)NC6=O)C7=O)CC5)CC4)CC3)cc3ncn(C(C)C)c23)cc1C(=O)NC(C)C (stereo partly shown) : 45 to 65%
Cc1cc(F)c(Nc2nc(-c3ccc4c(c3)N([C@H]3C[C@@H](N5CCCCC5)C3)C(=O)C43CCN(C(=O)C4CCN(C(=O)C5CCN(C(=O)CNc6cccc7c6C(=O)N(C6CCC(=O)NC6=O)C7=O)CC5)C4)CC3)cc3ncn(C(C)C)c23)cc1C(=O)NC(C)C (stereo partly shown) : 45 to 65%
Cc1cc(F)c(Nc2nc(-c3ccc4c(c3)N([C@H]3C[C@@H](N5CCCCC5)C3)C(=O)C43CCN(C(=O)CN4CCC5(CC4)CC(C(=O)NCCNc4cccc6c4C(=O)N(C4CCC(=O)NC4=O)C6=O)C5)CC3)cc3ncn(C(C)C)c23)cc1C(=O)NC(C)C (stereo partly shown) : 45 to 65%

*Q* What value of Dmax has been recorded for this entry: Cc1cc(F)c(Nc2nc(-c3ccc4c(c3)N([C@H]3C[C@@H](N5CCCCC5)C3)C(=O)C43CCN(C(=O)CCC4CCN(CC(=O)N[C@H](C(=O)N5C[C@H](O)C[C@H]5C(=O)N[C@@H](C)c5ccc(-c6scnc6C)cc5)C(C)(C)C)CC4)CC3)cc3ncn(C(C)C)c23)cc1C(=O)NC(C)C
*A* 45 to 65%

*Q* Again, but for Cc1cc(F)c(Nc2nc(-c3ccc4c(c3)N([C@H]3C[C@@H](N5CCCCC5)C3)C(=O)C43CCN(C(=O)C4(C)CCN(C(=O)C5CCN(c6ccc7c(c6)C(=O)N(C6CCC(=O)NC6=O)C7=O)CC5)CC4)CC3)cc3ncn(C(C)C)c23)cc1C(=O)NC(C)C (stereo partly shown)
*A* 45 to 65%

*Q* Again, but for Cc1cc(F)c(Nc2nc(-c3ccc4c(c3)N([C@H]3C[C@@H](N5CCCCC5)C3)C(=O)C43CCN(C(=O)c4ccc(C(=O)N5CCN(c6ccc7c(c6)C(=O)N(C6CCC(=O)NC6=O)C7=O)CC5C)cc4)CC3)cc3ncn(C(C)C)c23)cc1C(=O)NC(C)C (stereo partly shown)
*A* > 65%

*Q* Again, but for Cc1cc(F)c(Nc2nc(-c3ccc4c(c3)N([C@H]3C[C@@H](N5CCCCC5)C3)C(=O)C43CCN(C(=O)C4CN(CC5CCN(c6cccc7c6C(=O)N(C6CCC(=O)NC6=O)C7=O)CC5)C4)CC3)cc3ncn(C(C)C)c23)cc1C(=O)NC(C)C (stereo partly shown)
*A* > 65%
